Tested on: Fibroblast
Assay Summary: Incucyte cell viability with human fibroblast; also: filed as whole numbers so only -1 and 0 and 1 occur
Assay type: toxicity, cell-based
Condition Info: 0 h, 10 µM, compound concentration 10 uM, replicate number 1, timepoint 0 hours
Where a SMILES comes first, the peptide text is derived from it. [ ]: non-standard residue; d: D form. Arg(Me) = CNC(=N)NCCC[C@H](N)C(=O)O; d4Pal = N[C@H](Cc1ccncc1)C(=O)O; azaGly = NNC(=O)O
Growth Rate by entry:

Molecule: Clc1cccc(-c2nnnn2Cc2cccnc2)c1Cl
Growth Rate: 0
//
Molecule: CCOc1cc(N2CCC(O)CC2)ccc1Nc1ncc2c(n1)N(C)c1ccccc1C(=O)N2C
Growth Rate: 1
//
Molecule: CC1=C(C#N)C(c2ccc3[nH]nc(C)c3c2)C(C#N)=C(C)N1 [BAY-474]
Growth Rate: 1
//
Molecule: CC(=O)C1=C(C)N(c2cccc(C(F)(F)F)c2)C(=O)N[C@H]1c1ccc(C#N)nc1 [BAY-677]
Growth Rate: 0
//
Molecule: CNC(=N)NCCC[C@H](NC(=O)[C@H](CC(C)C)NC(=O)NNC(=O)[C@H](Cc1ccccc1)NC(=O)[C@H](CO)NC(=O)[C@H](CC(N)=O)NC(=O)[C@@H](Cc1ccncc1)NC(=O)[C@H](N)Cc1ccc(O)cc1)C(=O)N[C@@H](Cc1ccccc1)C(N)=O [KISS1-305] (H-[dY][d4Pal]NSF[azaGly]L[Arg(Me)]F-NH2)
Growth Rate: 0

###

System: Fibroblast
Assay Summary: Multiplex assay against human fibroblast
Type: toxicity, cell-based
Condition Info: 12 h, 1 µM, compound concentration 1 uM, replicate 2
Observable: Population Healthy Nuclei (%)

Molecule: COc1cccc([C@@H](C)NCCCc2ccccc2Cl)c1.Cl [TECALCET HYDROCHLORIDE]
Unit Name: %
Result Value: 81
//
Molecule: OC1(c2ccc(Cl)cc2)CCN(Cc2c[nH]c3ccccc23)CC1
Unit Name: %
Result Value: 77
//
Molecule: CN1CCN(c2ccc(OC(F)(F)F)c(Nc3ncc4c(n3)-c3c(c(C(N)=O)nn3CCO)CC4)c2)CC1 [ONVANSERTIB]
Unit Name: %
Result Value: 80
//
Molecule: COc1ncc(-c2ccc3nccc(-c4ccnnc4)c3c2)cc1NS(=O)(=O)c1ccc(F)cc1F [OMIPALISIB]
Unit Name: %
Result Value: 42
//
Molecule: Cc1nc(-c2ccc(-c3ccc(C(=O)N4CCc5cc6c(cc54)C4(CCN(C)CC4)CO6)cc3)c(C)c2)no1 [SB-224289]
Unit Name: %
Result Value: 81
//
Molecule: Cn1cc(-c2[nH]c3cc(NC(=O)[C@H](N)C4CCCCC4)cc4c3c2C=NNC4=O)cn1
Unit Name: %
Result Value: 72
//
Molecule: C=CC(=O)Nc1cc2c(Nc3ccc(F)c(Cl)c3)ncnc2cc1OCCCN1CCOCC1.Cl.Cl [CANERTINIB DIHYDROCHLORIDE]
Unit Name: %
Result Value: 35
//
Molecule: CCN(CC)CCCCNc1ncc2cc(-c3cc(OC)cc(OC)c3)c(NC(=O)NC(C)(C)C)nc2n1 [PD-173074]
Unit Name: %
Result Value: 15
//
Molecule: CN1CCC[C@@H]1CCO[C@](C)(c1ccccc1)c1ccc(Cl)cc1.O=C(O)/C=C/C(=O)O [CLEMASTINE FUMARATE]
Unit Name: %
Result Value: 76
//
Molecule: COc1cc(-n2cnc3cc(-c4ccc(Cl)cc4)sc3c2=O)ccc1OCCN1CCCC1
Unit Name: %
Result Value: 77
//
Molecule: CN(C)C(=O)N[C@H]1CC[C@H](CCN2CCN(c3cccc(Cl)c3Cl)CC2)CC1.Cl [CARIPRAZINE HYDROCHLORIDE]
Unit Name: %
Result Value: 84
//
Molecule: Cl.N#Cc1ccc2[nH]cc(CCCCN3CCN(c4ccc5oc(C(N)=O)cc5c4)CC3)c2c1 [VILAZODONE HYDROCHLORIDE]
Unit Name: %
Result Value: 70
//
Molecule: CN(C)CC#Cc1ccc(OCCCc2sc(N3CCc4cccc(C(=O)Nc5nc6ccccc6s5)c4C3)nc2C(=O)O)c(F)c1 [A-1155463]
Unit Name: %
Result Value: 53
//
Molecule: c1cn2cc(-c3ccc4cn[nH]c4c3)nc(Nc3ccc(N4CCOCC4)cc3)c2n1 [ENTOSPLETINIB]
Unit Name: %
Result Value: 73
//
Molecule: CN1CCN(CCOc2cc(OC3CCOCC3)c3c(Nc4c(Cl)ccc5c4OCO5)ncnc3c2)CC1 [SARACATINIB]
Unit Name: %
Result Value: 72
//
Molecule: Cc1nc(Nc2n[nH]c3c2CN(C(=O)N[C@H](CN(C)C)c2ccccc2)C3(C)C)c2sccc2n1 [PF-03758309]
Unit Name: %
Result Value: 37

###

Below: a set of entries, each annotated with reported Population Normal (%).
Test system: Fibroblast
Assay Summary: Multiplex assay against human fibroblast
Assay type: toxicity, cell-based
Condition Info: 24 h, 10 µM, compound concentration 10 uM, replicate 2

Compound: Cc1csc2c(N[C@@H](C)CN3CCN(S(=O)(=O)c4ccc(Cl)c(Cl)c4)CC3)ncnc12
Population Normal (%): 95%
--
Compound: CC[C@H](C)C(=O)O[C@H]1C[C@@H](C)C=C2C=C[C@H](C)[C@H](CC[C@@H]3C[C@@H](O)CC(=O)O3)[C@H]21 [LOVASTATIN]
Population Normal (%): 92%
--
Compound: C=CC(=O)Nc1ccc2ncnc(Nc3ccc(OCc4cccc(F)c4)c(Cl)c3)c2c1.Cc1ccc(S(=O)(=O)O)cc1
Population Normal (%): 93%
--
Compound: CCN(CC)CCCCNc1ncc2cc(-c3cc(OC)cc(OC)c3)c(NC(=O)NC(C)(C)C)nc2n1 [PD-173074]
Population Normal (%): 41%
--
Compound: CNc1nc(NCc2ccc(NS(C)(=O)=O)cc2Cl)cc(-c2ccccn2)n1
Population Normal (%): 89%
--
Compound: CC(C)(O)CNc1ncc(-c2ccnc(Nc3ccnc(Cl)c3)n2)c(CC2CC2)n1
Population Normal (%): 85%
--
Compound: CN1CCCC(n2nc(Cc3ccc(Cl)cc3)c3ccccc3c2=O)CC1.Cl (configuration not stated) [AZELASTINE HYDROCHLORIDE]
Population Normal (%): 95%

###

The reader will find reported Total Cell Count values listed item by item below.
Test system: U2OS
Assay Summary: Multiplex assay against U2OS
Assay type: toxicity, cell-based
Condition Info: human, 24 h, 10 µM, compound concentration 10 uM, replicate 1
Observable: Total Cell Count

Molecule: O=C1NCN(c2ccccc2)C12CCN(CCCOc1ccc(F)cc1)CC2 [SPIRAMIDE]
Observable: Total Cell Count
Result Value: 173
//
Molecule: C[C@@H](NCCCc1cccc(C(F)(F)F)c1)c1cccc2ccccc12.Cl [CINACALCET HYDROCHLORIDE]
Observable: Total Cell Count
Result Value: 157
//
Molecule: Cc1[nH]c(/C=C2\C(=O)Nc3ccc(S(=O)(=O)N(C)c4cccc(Cl)c4)cc32)c(C)c1C(=O)N1CCN(C)CC1
Observable: Total Cell Count
Result Value: 140
//
Molecule: c1cn2cc(-c3ccc4cn[nH]c4c3)nc(Nc3ccc(N4CCOCC4)cc3)c2n1
Observable: Total Cell Count
Result Value: 186
//
Molecule: CN(C)CC#Cc1ccc(OCCCc2sc(N3CCc4cccc(C(=O)Nc5nc6ccccc6s5)c4C3)nc2C(=O)O)c(F)c1
Observable: Total Cell Count
Result Value: 194
//
Molecule: COc1cc2nccc(Oc3ccc(NC(=O)Nc4cc(C)on4)c(Cl)c3)c2cc1OC.O
Observable: Total Cell Count
Result Value: 142
//
Molecule: CC(C)NCC(O)COc1ccc(CCOCC2CC2)cc1.Cl (stereo not drawn) [BETAXOLOL HYDROCHLORIDE]
Observable: Total Cell Count
Result Value: 139
//
Molecule: CN1CCCC(n2nc(Cc3ccc(Cl)cc3)c3ccccc3c2=O)CC1.Cl (stereo not drawn) [AZELASTINE HYDROCHLORIDE]
Observable: Total Cell Count
Result Value: 99

###

Tested on: Fibroblast
Assay Summary: Multiplex assay against human fibroblast
Format: toxicity, cell-based
Condition Info: 12 h, 10 µM, compound concentration 10 uM, replicate 2
Observable: Population Healthy Nuclei (%)

Compound: Cc1c(-c2ccc(O)cc2)n(Cc2ccc(OCCN3CCCCCC3)cc2)c2ccc(O)cc12 [BAZEDOXIFENE]
System Name: Fibroblast
Result Value: 56%
//
Compound: Cc1[nH]c(/C=C2\C(=O)Nc3ccc(S(=O)(=O)N(C)c4cccc(Cl)c4)cc32)c(C)c1C(=O)N1CCN(C)CC1
System Name: Fibroblast
Result Value: 74%
//
Compound: CN(C)C(=O)N[C@H]1CC[C@H](CCN2CCN(c3cccc(Cl)c3Cl)CC2)CC1.Cl [CARIPRAZINE HYDROCHLORIDE]
System Name: Fibroblast
Result Value: 57%
//
Compound: C=CC(=O)Nc1cc2c(Nc3ccc(F)c(Cl)c3)ncnc2cc1OCCCN1CCOCC1.Cl.Cl [CANERTINIB DIHYDROCHLORIDE]
System Name: Fibroblast
Result Value: 31%
